These measurements were taken from PubChem BioAssay (NCATS).

assay: qHTS of pediatric cancer cell lines to identify multiple opportunities for drug repurposing: Primary screen for U-2 OS cells (AID 1347096); conditions: U-2 OS viability, CellTiter-Glo luminescence, 48 h; series mostly up to 46 µM; further: nearly all actives have a fitted effect of over 50% in size
Results filed as inconclusive are left out. Activity calls are given as the source filed them. The call rests on the fitted dose curve; in most records, active means well fitted cell-killing curve with a large enough effect; inconclusive means small, poorly fitted or top-dose-only effect; inactive means flat fitted curve, though single readings scatter.
Measured property: outcome

Known results for molecules:
| Structure | Reported measurement |
| --- | --- |
| C[C@@H]1[C@@H](C(=O)C[C@H]2O[C@@H]3O[C@]4(C)CC[C@@H]5[C@H](C)CC[C@@H]([C@H]2C)[C@@]35OO4)O[C@@H]2O[C@]3(C)CC[C@H]4[C@H](C)CC[C@@H]1[C@@]24OO3 | inactive |
| O=C1CC[C@@]2(O)[C@H]3Cc4ccc(O)c5c4[C@@]2(CCN3CC2CC2)[C@H]1O5 | inactive |
| Cc1ccc(-c2nc3ccc(C)cn3c2CC(=O)N(C)C)cc1 | inactive |
| CC1=C2C[C@@H]3[C@@H](CC=C4C[C@@H](O)CC[C@@]43C)[C@@H]2CC[C@]12O[C@H]1C[C@H](C)CN[C@H]1[C@H]2C | inactive |

Please find the next molecule below.
## Task Item CC(C)=CCOc1c2occc2cc2ccc(=O)oc12 has what recorded outcome?
## Result inactive

----------
experiment: qHTS of pediatric cancer cell lines to identify multiple opportunities for drug repurposing: Confirmatory screen for NB1643 cells (AID 1347109); conditions: NB1643 neuroblastoma cell viability; series mostly up to 45.9 µM; further: nearly all actives have a fitted effect of over 45% in size
Inconclusive results are not listed. Activity calls are given as the source filed them. Calls come from the whole dose curve; as a rule, active = well fitted cell-killing curve with a large enough effect; inconclusive = small, poorly fitted or top-dose-only effect, or effect the other way; inactive = no such curve, though single readings can be large or run the other way.
The reply should name one outcome from Yes for active, No for inactive

| Molecule | Class label |
| --- | --- |
| C[C@@H]1[C@@H](CC(C[C@H]2O[C@@H]3O[C@]4(C)CC[C@@H]5[C@H](C)CC[C@@H]([C@H]2C)[C@@]35OO4)C[S+](=O)([O-])c2ccc(COC(=O)N(C)C)cc2)O[C@@H]2O[C@]3(C)CC[C@H]4[C@H](C)CC[C@@H]1[C@@]24OO3 (some centres undefined) | Yes |
| COC[C@@H](NC(C)=O)C(=O)NCc1ccccc1 | No |
| Cn1c(CCCC(=O)O)nc2cc(N(CCCl)CCCl)ccc21 | Yes |

## Task Could you please tell me the result logged for O=c1[nH]c2ccccc2n1CCCN1CCC(n2c(=O)[nH]c3cc(Cl)ccc32)CC1 in this assay?
## Result Yes

----------
Readings of Potency for the listed molecules
assay: qHTS for differential inhibitors of proliferation of Plasmodium falciparum line GB4 (AID 1816); details: Plasmodium falciparum GB4 proliferation inhibition; series mostly up to 28.7 µM;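 further: potency means the concentration at half of the fitted maximal effect; parasite growth measured after 72 h incubation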
Inconclusive results are not listed. The source made the active and inactive calls. The call rests on the fitted dose curve; in most records, active means well fitted curve in the direction sought with a large enough effect; inconclusive means small, poorly fitted or top-dose-only effect, or another doubt; inactive means no such curve, though single readings can be large or run the other way.

Known results for molecules:
| Molecule | Reported measurement |
| --- | --- |
| CN1C[C@H](CNC(=O)OCc2ccccc2)C[C@@H]2c3cccc4c3c(cn4C)C[C@H]21 | 7.08 µM (active) |
| CCC1(C2=NCCN2)Cc2ccccc2O1 (stereo unspecified) | 12.6 µM (active) |
| Cc1cccc(C)c1NC1=NCCCS1 | 14.1 µM (active) |

## Task Item CN(C)CCC=C1c2ccccc2CCc2ccccc21 has what recorded Potency?
## Result 7.94 µM (active)

## Task Item C=C(C)[C@H]1Cc2c(ccc3c2O[C@@H]2COc4cc(OC)c(OC)cc4[C@@H]2C3=O)O1 has what recorded Potency?
## Result 12.6 µM (active)
